Provenance of the data: ChEMBL document CHEMBL1828496

What pIC50 was measured for each of the following?
targetOrTestSystem: Amine oxidase [flavin-containing] A (Homo sapiens)
Sequence (P21397 whole entry): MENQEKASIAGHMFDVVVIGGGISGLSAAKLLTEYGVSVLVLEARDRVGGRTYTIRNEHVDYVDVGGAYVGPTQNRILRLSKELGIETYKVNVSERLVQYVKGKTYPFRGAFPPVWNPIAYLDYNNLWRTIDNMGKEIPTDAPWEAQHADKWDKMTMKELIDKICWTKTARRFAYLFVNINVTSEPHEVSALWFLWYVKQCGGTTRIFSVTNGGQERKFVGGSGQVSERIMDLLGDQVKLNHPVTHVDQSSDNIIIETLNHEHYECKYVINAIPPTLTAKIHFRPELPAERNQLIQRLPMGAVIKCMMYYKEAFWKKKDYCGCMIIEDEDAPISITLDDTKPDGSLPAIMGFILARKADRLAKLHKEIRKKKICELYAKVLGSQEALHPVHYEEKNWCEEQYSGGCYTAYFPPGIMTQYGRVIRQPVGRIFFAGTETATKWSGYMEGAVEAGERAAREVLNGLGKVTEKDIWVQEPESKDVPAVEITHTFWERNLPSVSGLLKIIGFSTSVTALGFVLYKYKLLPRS
assayComment: Inhibition of human recombinant MAO-A expressed in baculovirus infected BTI-TN-5B1-4 cells assessed as production of hydrogen peroxide from p-tyramine after 15 mins by microplate fluorescence assay
Expect pIC50 as a plain number equal to -log10 of the molar concentration.

Reported pIC50 for Cc1ccc(NNC(=O)c2cc3ccccc3oc2=O)cc1 : what is it?
4.23

Next compound up: O=C(O)c1cc2cccc(O)c2oc1=O
4.22

Let us now turn to CCOC(=O)c1cc2cccc(O)c2oc1=O
4.39

Please do the same for O=C(NNc1ccccc1[N+](=O)[O-])c1cc2ccccc2oc1=O as well.
4.40

Now give it for CC(=O)c1cc2cc(Cl)cc(Br)c2oc1=O too.
4.26

Also check CC(=O)c1cc2cc(Br)ccc2oc1=O
4.29

Next record, please: O=C(NNc1ccc(Cl)cc1)c1cc2ccccc2oc1=O
4.32

Also CCOC(=O)c1cc2cc(O)ccc2oc1=O , if possible.
4.31

What would you report for CCOC(=O)c1cc2ccc(OC3CCCCCC3)cc2oc1=O ?
4.33

Also need O=C(NNc1ccc([N+](=O)[O-])cc1[N+](=O)[O-])c1cc2ccccc2oc1=O , thanks.
4.22

# iterate: O=C(c1ccccc1)c1cc2cccc(O)c2oc1=O
4.39

Can you handle O=C(NNc1ccccc1)c1cc2ccccc2oc1=O next?
4.38

Next entry: CC(=O)c1cc2cccc(O)c2oc1=O
4.40

Ok, now O=C(c1ccccc1)c1cc2cc(O)ccc2oc1=O
4.29

# repeat for O=C(O)c1cc2cc(O)ccc2oc1=O
4.40

---

assayComment: Hydrolytic stability of the compound in dimethyl sulfoxide after 1 to 24 hrs by NMR spectroscopic analysis
Type: physicochemical
observedProperty: Stability

Item under review: CCOC(=O)c1cc2cc(OC)ccc2oc1=O . Reported Stability?
Stable

Can you check NNC(=O)c1cc2ccccc2oc1=O next?
Stable

Input CCOC(=O)c1cc2ccc(OCc3ccccc3)cc2oc1=O
Stable

---

targetOrTestSystem: Amine oxidase [flavin-containing] B (Homo sapiens, UniProt P27338)
Sequence (P27338 whole entry): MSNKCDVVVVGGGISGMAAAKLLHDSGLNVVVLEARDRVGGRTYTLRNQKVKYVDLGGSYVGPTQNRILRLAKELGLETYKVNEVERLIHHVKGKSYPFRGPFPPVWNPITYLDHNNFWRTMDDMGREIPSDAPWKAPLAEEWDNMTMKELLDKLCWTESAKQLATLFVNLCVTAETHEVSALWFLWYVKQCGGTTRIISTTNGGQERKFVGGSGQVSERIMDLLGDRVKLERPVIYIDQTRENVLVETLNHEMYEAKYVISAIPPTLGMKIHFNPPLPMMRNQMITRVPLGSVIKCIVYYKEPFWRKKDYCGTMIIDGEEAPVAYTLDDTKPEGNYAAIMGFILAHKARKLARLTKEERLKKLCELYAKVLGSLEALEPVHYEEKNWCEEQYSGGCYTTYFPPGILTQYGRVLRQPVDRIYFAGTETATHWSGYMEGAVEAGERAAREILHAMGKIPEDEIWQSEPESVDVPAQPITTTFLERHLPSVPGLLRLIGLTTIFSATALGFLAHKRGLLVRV
assayComment: biochemical
Description: Inhibition of human recombinant MAO-B expressed in baculovirus infected BTI-TN-5B1-4 cells assessed as production of hydrogen peroxide from p-tyramine after 15 mins by microplate fluorescence assay
Please go through the items and note down their log10 of IC50.
The common logarithm of IC50 in µM is what is listed.

Consider the molecule shown here: CC(=O)c1cc2cc(Cl)cc(Br)c2oc1=O What is its recorded log10 of IC50?
-0.85

Same thing, different molecule: CCOC(=O)c1cc2cc(OC)ccc2oc1=O
1.33

And for O=C(O)c1cc2cc(I)cc(I)c2oc1=O ?
1.25

Try the molecule CCOC(=O)c1cc2ccc(OCc3ccc(C(C)(C)C)cc3)cc2oc1=O
0.57

Request: CC(=O)c1cc2cc(O)ccc2oc1=O
1.81

Next record, please: O=C(NNc1ccc([N+](=O)[O-])cc1[N+](=O)[O-])c1cc2ccccc2oc1=O
1.75

What do you get for O=C(O)c1cc2ccc(OC3CCCCCC3)cc2oc1=O ?
0.94

Can you handle CCN(CC)c1ccc2cc(C(C)=O)c(=O)oc2c1 next?
1.26

And then CCOC(=O)c1cc2ccc(OC3CCCCCC3)cc2oc1=O , what is it?
-1.67

Would you mind doing O=C(c1ccccc1)c1cc2cccc(O)c2oc1=O as well?
1.43

For CCOC(=O)c1cc2cc(O)ccc2oc1=O then?
1.00

Same for CCOC(=O)c1cc2ccc(N(CC)CC)cc2oc1=O
1.66
